PROTOCOL: Particle size and polydispersity index of nanoparticle compositions (Zetasizer Nano ZS)
Type: physicochemical
CONDITION: Table 1C; compositions for subcutaneous administration
READOUT KIND: Size (nm)

>  <MOLECULE>
CCCCCC=CCC=CCCCCCCCCC(CCCCCCCCC=CCC=CCCCCC)OC(=O)CCCN(C)C (stereo not shown) [MC3, reference compound]

>  <ENDPOINT RESULT>
56.9

$$$$
>  <MOLECULE>
CCCCCCCCCOC(=O)CCCCCCCN(CCCCCCCC(=O)OC(CCCCCCCC)CCCCCCCC)CCCNC(=O)N(C)C

>  <ENDPOINT RESULT>
91.5

$$$$
>  <MOLECULE>
CCCCCCCCCOC(=O)CCCCCCCN(CCCCCCCC(=O)OC(CCCCCCCC)CCCCCCCC)CCCNC(=S)NC

>  <ENDPOINT RESULT>
83.9

$$$$
>  <MOLECULE>
CCCCCCCCCCCOC(=O)CCCCCN(CCO)CCCCCCCC(=O)OC(CCCCCCCC)CCCCCCCC

>  <ENDPOINT RESULT>
76.3

$$$$
